# assay.system: VEGF165 (Homo sapiens, UniProt P15692-4 P15692-4:27-191)
# Sequence (P15692 other isoform, or with tags, fused parts or gaps): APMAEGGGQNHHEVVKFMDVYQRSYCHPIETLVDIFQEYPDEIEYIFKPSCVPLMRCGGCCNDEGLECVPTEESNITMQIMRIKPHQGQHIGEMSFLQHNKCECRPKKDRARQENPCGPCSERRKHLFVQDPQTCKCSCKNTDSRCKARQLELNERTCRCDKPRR
# assay.protocol: filter; EDTA, no divalents; Mg2+ does not rescue, Ca2+ fully restores
# applied.conditions: tags: R&D Systems, expressed in Sf21 insect cells, carrier-free; chain copies: 2
pKd: −log10 of the molar value.
measurement.name: pKd

Tell us which pKd value is on record for CGGAAUCAGUGAAUGCUUAUACAUCCG (ssRNA, 2'-F pyrimidines, 2'-OMe purines except two 2'-OH purines) [t44OMe]
< 7.00
